Target: Steroid 17-alpha-hydroxylase/17,20 lyase (Rattus norvegicus, UniProt P11715)
Sequence (P11715 whole entry): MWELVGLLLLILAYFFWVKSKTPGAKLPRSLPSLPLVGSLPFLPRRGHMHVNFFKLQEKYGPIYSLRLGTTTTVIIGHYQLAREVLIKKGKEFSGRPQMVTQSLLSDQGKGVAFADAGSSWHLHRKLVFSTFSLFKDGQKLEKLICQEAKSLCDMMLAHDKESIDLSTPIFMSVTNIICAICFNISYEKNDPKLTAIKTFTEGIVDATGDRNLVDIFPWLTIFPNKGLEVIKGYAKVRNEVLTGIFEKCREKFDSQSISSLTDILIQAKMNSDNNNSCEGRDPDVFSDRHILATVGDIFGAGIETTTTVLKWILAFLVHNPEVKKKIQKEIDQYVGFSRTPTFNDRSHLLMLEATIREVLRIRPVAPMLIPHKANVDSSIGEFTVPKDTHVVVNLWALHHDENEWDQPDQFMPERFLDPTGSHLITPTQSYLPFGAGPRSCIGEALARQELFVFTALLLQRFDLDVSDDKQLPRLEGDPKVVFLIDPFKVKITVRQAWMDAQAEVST
Assay: Inhibition of 17,20-lyase activity of rat testicular microsomal P450-17alpha
Test Readout: log10(IC50) (log10 of the value in nM)
Units before log transform: nM; reported quantity: IC50; transform: log10.

CCCCc1ccc(S(=O)(=O)Oc2ccc(Cn3ccnc3)cc2)cc1 ... 1.60

Please supply log10(IC50) for each of the following items, keeping them in order.
1. CC(=O)N1CCN(c2ccc(OCC3COC(Cn4ccnc4)(c4ccc(Cl)cc4Cl)O3)cc2)CC1 (configuration not stated) [KETOCONAZOLE]
2. Oc1ccc(Cn2ccnc2)cc1
3. O=S(=O)(Oc1ccc(Cn2ccnc2)cc1)c1ccc(F)cc1
4. O=S(=O)(Oc1ccc(Cn2ccnc2)cc1)c1ccc(C(F)(F)F)cc1
5. CCCc1ccc(S(=O)(=O)Oc2ccc(Cn3ccnc3)cc2)cc1
6. CCc1ccc(S(=O)(=O)Oc2ccc(Cn3ccnc3)cc2)cc1
7. Ic1ccc(Cn2ccnc2)cc1
8. O=S(=O)(Oc1ccc(Cn2ccnc2)cc1)c1ccc(-c2ccccc2)cc1

[2.31, 3.17, 1.15, 1.53, 1.48, 1.30, 2.21, 1.00]

Please supply log10(IC50) for each of the following items, keeping them in order.
1. Cc1ccc(S(=O)(=O)Oc2ccc(Cn3ccnc3)cc2)cc1
2. CCCCCc1ccc(S(=O)(=O)Oc2ccc(Cn3ccnc3)cc2)cc1

1. 1.48
2. 2.20

----------
Target: Steroid 17-alpha-hydroxylase/17,20 lyase (Rattus norvegicus, UniProt P11715)
Experiment: Inhibition of 17-alpha-hydroxylase activity of rat testicular microsomal P450-17alpha
pIC50: −log10 of the molar value.
Grouping key: pIC50. Bins: low (below 6), moderate (6 to below 7), high (7 or more)

Recorded results for 3 compounds are shown here.
CC(=O)N1CCN(c2ccc(OCC3COC(Cn4ccnc4)(c4ccc(Cl)cc4Cl)O3)cc2)CC1 (configuration not stated) [KETOCONAZOLE] ... low
Cc1ccc(S(=O)(=O)Oc2ccc(Cn3ccnc3)cc2)cc1 ... high
c1ccc(Cn2ccnc2)cc1 [BENZYLIMIDAZOLE] ... low

Looking at O=S(=O)(Oc1ccc(Cn2ccnc2)cc1)c1ccc(F)cc1 , which class would you pick?
moderate

Hello team, could you let me know which band the following compound falls into: Oc1ccc(Cn2ccnc2)cc1
low

----------
Target: Steroid 17-alpha-hydroxylase/17,20 lyase (Rattus norvegicus)
Experiment: Inhibition of 17-alpha-hydroxylase activity of rat testicular microsomal P450-17alpha
Test Readout: pIC50
One number for each entry, as −log10 of the molar value.

Solved cases (5 shown):
O=S(=O)(Oc1ccc(Cn2ccnc2)cc1)c1ccc(C(F)(F)F)cc1 ... 5.98
O=S(=O)(Oc1ccc(Cn2ccnc2)cc1)c1ccc(-c2ccccc2)cc1 ... 7.00
CCCCc1ccc(S(=O)(=O)Oc2ccc(Cn3ccnc3)cc2)cc1 ... 7.15
CCCc1ccc(S(=O)(=O)Oc2ccc(Cn3ccnc3)cc2)cc1 ... 5.92
CCCCCc1ccc(S(=O)(=O)Oc2ccc(Cn3ccnc3)cc2)cc1 ... 6.89

Dear colleague, could you please provide pIC50 for the molecules listed below?
1. Ic1ccc(Cn2ccnc2)cc1
2. CCc1ccc(S(=O)(=O)Oc2ccc(Cn3ccnc3)cc2)cc1

6.14
6.96
